- assayedTarget: T1, His-tagged CRD2 (CRD of human Frizzled 2, residues 24-156) (human, UniProt Q14332 24-156)
- T1 construct: range 24-156
- procedureSummary: pull down by His-CRD2

| binder | binding result |
| --- | --- |
| TcdB fragment 1510-1804 (other) SNNLKDVKVITKDNVNILTGYYLKDDIKISLSLTLQDEKTIKLNSVHLDESGVAEILKFMNRKGNTNTSDSLMSFLESMNIKSIFVNFLQSNIKFILDANFIISGTTSIGQFEFICDENDNIQPYFIKFNTLETNYTLYVGNRQNMIVEPNYDLDDSGDISSTVINFSQKYLYGIDSCVNKVVISPNIYTDEINITPVYETNNTYPEVIVLDANYINEKINVNINDLSIRYVWSNDGNDFILMSTSEENKVSQVKIRFVNVFKDKTLANKLSFNFSDKQDVPVSEIILSFTPSYY | no binding |
| TcdB fragment 1688-1835 (other) VNKVVISPNIYTDEINITPVYETNNTYPEVIVLDANYINEKINVNINDLSIRYVWSNDGNDFILMSTSEENKVSQVKIRFVNVFKDKTLANKLSFNFSDKQDVPVSEIILSFTPSYYEDGLIGYDLGLVSLYNEKFYINNFGMMVSGL | no binding |
| TcdB fragment 1454-1804 (other) SELQKNIPYSFVDSEGKENGFINGSTKEGLFVSELPDVVLISKVYMDDSKPSFGYYSNNLKDVKVITKDNVNILTGYYLKDDIKISLSLTLQDEKTIKLNSVHLDESGVAEILKFMNRKGNTNTSDSLMSFLESMNIKSIFVNFLQSNIKFILDANFIISGTTSIGQFEFICDENDNIQPYFIKFNTLETNYTLYVGNRQNMIVEPNYDLDDSGDISSTVINFSQKYLYGIDSCVNKVVISPNIYTDEINITPVYETNNTYPEVIVLDANYINEKINVNINDLSIRYVWSNDGNDFILMSTSEENKVSQVKIRFVNVFKDKTLANKLSFNFSDKQDVPVSEIILSFTPSYY | no binding |
